Tested on: MOLT-4 (human acute lymphoblastic leukemia cells)
Protocol details: MTT cancer cell growth inhibition
Format: cell-based
Measurement setup: Homo sapiens, MOLT-4, 72 h, MOLT-4 cells, MTT, 72 hours incubation; read-out: GI50 Mol
Measurement type: GI50 (nM)

These recorded examples may help you get a feel for the data.
| Compound | Unit abbreviation | Result |
| --- | --- | --- |
| C/C=C1\NC(=O)c2cc(SC)cc(n2)CNC(=O)C[C@@H](/C=C/CCSC(C)=O)OC(=O)[C@H](Cc2ccccc2)NC1=O [Compound 187] | nM | 30 |
| C/C=C1\NC(=O)c2cc(SC)cc(n2)CNC(=O)C[C@@H](/C=C/CCSC(=O)CCC)OC(=O)[C@H](C(C)C)NC1=O [Compound 160] | nM | 50 |
| C=C1NC(=O)c2ccc(SC)c(n2)CNC(=O)C[C@@H](/C=C/CCSC(C)=O)OC(=O)[C@H](C)NC1=O [Compound 212] | nM | 70 |
| C/C=C1\NC(=O)c2cc(SC)cc(n2)CNC(=O)C[C@@H](/C=C/CCS)OC(=O)[C@H](CC)NC1=O [Compound 230] | nM | 30 |
| C/C=C1\NC(=O)c2ccc(SC)c(n2)CNC(=O)C[C@@H](/C=C/CCSC=O)OC(=O)[C@H](C(C)C)NC1=O [Compound 170] | nM | 30 |

[a] C/C=C1\NC(=O)c2ccc(SC)c(n2)CCNC(=O)C[C@@H](/C=C/CCSC(C)=O)OC(=O)[C@H](C(C)C)NC1=O [Compound 225]
[b] C/C=C1\NC(=O)c2nc(ccc2SC)CNC(=O)C[C@@H](/C=C/CCSC(C)=O)OC(=O)[C@H](Cc2ccc(O)cc2)NC1=O [Compound 201]
[c] CCCCCCCC(=O)SCC/C=C/[C@@H]1CC(=O)NCc2cccc(n2)C(=O)NC(CC)C(=O)N[C@@H](C(C)C)C(=O)O1 (some centres unmarked) [Compound 245]
q: Ordering criterion: GI50; begin with the maximum. List each label, following the requested order.
a: c, a, b

[P] C/C=C1\NC(=O)c2cccc(n2)CNC(=O)C[C@@H](/C=C/CCSC(=O)CCCCCCC)OC(=O)CNC1=O [Compound 235]
[Q] C/C=C1\NC(=O)c2cc(SC)cc(n2)CNC(=O)C[C@@H](/C=C/CCSC(=O)CCCC)OC(=O)[C@H](C(C)C)NC1=O [Compound 157]
[R] C/C=C1\NC(=O)c2nc(ccc2SC)CNC(=O)C[C@@H](/C=C/CCS)OC(=O)[C@H](CC)NC1=O [Compound 229]
q: Ordering criterion: GI50; begin with the maximum. List each label, following the requested order.
a: P, R, Q
(P: 70 nM, R: 30 nM, Q: 20 nM)

[a] C/C=C1\NC(=O)c2ccc(SC)c(n2)CNC(=O)C[C@@H](/C=C/CCSC(=O)CCCC)OC(=O)[C@H](C(C)C)NC1=O [Compound 158]
[b] C/C=C1\NC(=O)c2ccc(SCC)c(n2)CNC(=O)C[C@@H](/C=C/CCSC(=O)CCCCC)OC(=O)[C@H](C(C)C)NC1=O [Compound 255]
q: Lab log: flag the item ( a or b ) with the smaller GI50 figure. State your choice using its label.
a: b

[P] C/C=C1\NC(=O)c2nc(ccc2SCC)CNC(=O)C[C@@H](/C=C/CCSC(=O)CCCCC)OC(=O)[C@H](C(C)C)NC1=O [Compound 253]
[Q] C/C=C1\NC(=O)c2nc(ccc2SC)CNC(=O)C[C@@H](/C=C/CCSC(C)=O)OC(=O)[C@@H](C)NC1=O [Compound 220]
[R] C/C=C1\NC(=O)c2nc(ccc2SC)CNC(=O)C[C@@H](/C=C/CCSC(=O)CCCCCCC)OC(=O)[C@H](CC)NC1=O [Compound 171]
[S] C/C=C1\NC(=O)c2cc(SC)cc(n2)CNC(=O)C[C@@H](/C=C/CCSC(C)=O)OC(=O)[C@H](CCCCNC(=O)OCC2c3ccccc3-c3ccccc32)NC1=O [Compound 196]
q: Ordering criterion: GI50; begin with the maximum. List each label, following the requested order.
a: P, Q, S, R

[a] C/C=C1\NC(=O)c2ccc(SC)c(n2)CNC(=O)C[C@@H](/C=C/CCSC(=O)CCCCCC)OC(=O)[C@H](C(C)C)NC1=O [Compound 152]
[b] C/C=C1\NC(=O)c2cc(SC)cc(n2)CNC(=O)C[C@@H](/C=C/CCS)OC(=O)[C@H](C(C)C)NC1=O [Compound 227]
q: Lab log: flag the item ( a or b ) with the smaller GI50 figure. State your choice using its label.
a: b

[a] C/C=C1\NC(=O)c2nc(ccc2SC)CNC(=O)C[C@@H](/C=C/CCSC=O)OC(=O)[C@H](C(C)C)NC1=O [Compound 168]
[b] C=C1NC(=O)c2ccc(SC)c(n2)CNC(=O)C[C@@H](/C=C/CCSC(C)=O)OC(=O)[C@H](C(C)C)NC1=O [Compound 206]
q: Lab log: flag the item ( a or b ) with the smaller GI50 figure. State your choice using its label.
a: b

[P] C=C1NC(=O)c2nc(ccc2SC)CNC(=O)C[C@@H](/C=C/CCSC(C)=O)OC(=O)[C@H](C)NC1=O [Compound 210]
[Q] C/C=C1\NC(=O)c2cccc(n2)CNC(=O)C[C@@H](/C=C/CCSC(=O)CCCCCCC)OC(=O)[C@H](CCSC)NC1=O [Compound 240]
q: Lab log: flag the item ( P or Q ) with the smaller GI50 figure. State your choice using its label.
a: Q
(Q: 30 nM, P: 50 nM)

Hello, the source for this data is patent US10065990B2, in case you need it.
